Please provide measured melting point for the entries that follow.

Req: Which value of melting point has been reported for CN1CCN(c2cccc3c2C[C@H](NC(=O)c2ccc(-c4ccccc4)cc2)CC3)CC1 in the records?
Resp: 232 to 233 °C

Req: What value of melting point has been recorded for this entry: CC(C)CN(Cc1nnc(-c2ncn3c2CN(C)C(=O)c2ccccc2-3)o1)CC(C)C
Resp: 138 to 140 °C

Req: May I ask what melting point has been recorded for COCn1ncc2cc(-c3nnc(SCc4cccc(C(F)(F)F)c4)o3)ccc21 ?
Resp: 159 to 160 °C

Req: Name the reported melting point value associated with the compound Cc1cccc2c(C=C(Br)Br)csc12
Resp: 75 to 78 °C

Req: So what does the record say about melting point for COc1cc(C2=C(c3cn(CCCNC(=O)C(N)CC(C)C)c4ccccc34)C(=O)NC2=O)cc(OC)c1OC (stereo not given) ?
Resp: 172 to 173 °C

Req: Entry NC(N)=Nc1nc(-c2ccc(-c3nc(N)n[nH]3)o2)cs1 has what melting point?
Resp: > 300 °C

Req: Record request: melting point value, item CCOC(=O)/C(=C\Nc1cc(OC)ccc1OC)c1ccccc1
Resp: 93 to 94 °C

Req: Query (compound): O=C(CCCl)c1cc2ccccc2o1 ; field requested: melting point
Resp: 116 to 118 °C

For each entry beneath this line, provide reported melting point.
1. CCN(CC)Cc1cnc(-c2ncn3c2CN(C)C(=O)c2cc(F)ccc2-3)o1
2. C#Cc1ccc2c(c1)C=C(C(=O)O)C(C(F)(F)F)O2 (stereo not given)
3. Cc1c(CC(N)=O)c2cc(OCc3nc4ccccc4s3)ccc2n1Cc1ccc(Cl)cc1
4. COc1cc(OC)cc(C2(Cl)C(C)(C)C2(C)C)c1

Resp:
1: 182 to 184 °C; 2: 198 to 200 °C; 3: 169 to 170 °C; 4: 119 to 121 °C

====

Record form. Attribute: melting point. Fill in for each entry.

Req: I'd like to know its melting point. The molecule in question is N#CCNC(COCc1cc(C(F)(F)F)cc(C(F)(F)F)c1)C(c1ccccc1)c1ccccc1 (stereo not given)
Resp: 78 to 80 °C

Req: State the recorded melting point for this entry: CC(C)(C)c1ccc(C(=O)Nc2ccc([N+](=O)[O-])cc2C(=O)O)cc1
Resp: 245 to 249 °C

Provide reported melting point for each item, in the same order as listed.
1. CCOC(=O)CNC(=O)CCC(=O)OC
2. CCOc1c(CN2CCCCC2)c2c(c3c1OC(C)(C)C3)C(c1cccc(N(S(C)(=O)=O)S(C)(=O)=O)c1)=NC(C)(C)C2
3. Nc1ccc(Cl)cc1NCC1CCCCC1

Resp:
["61 to 62 °C", "118 to 119 °C", "62 °C"]

====

metric: melting point

See these solved cases before continuing.
Req: Consider the compound CCCOCc1nc2nccnc2c(=O)[nH]1 and give its measured melting point.
Resp: 158 to 160 °C

Req: Item under review: CCN(CC)CCOc1ccc(-c2oc3ccc(Cl)cc3c2C(=O)c2cc(C)cc(C)c2)cc1 . Reported melting point?
Resp: 161 to 162 °C

Req: Record request: melting point value, item CC(C)(C)OC(=O)C(N)CCCCNC(=O)c1ccc(Cl)c(S(N)(=O)=O)c1 (stereo not given)
Resp: 158 to 160 °C

Req: Item CN(C)c1cc2nc(C(=O)O)c(=O)[nH]c2cc1[N+](=O)[O-] has what recorded melting point?
Resp: 194 to 196 °C

Req: What value of melting point has been recorded for this entry: COC(=O)c1occc1NC(N)=O
Resp: 208 °C

Go through the list and state melting point for each entry.
1. CCCc1c2c(c(N)c3c(=O)cc(C(=O)OCC)oc13)CC(C(=O)OCC)CC2 (stereo not given)
2. CCC(=O)OCc1nc(-c2ccc(OC)c(OC)c2)c2cc(OC)c(OC)cc2c1CC
3. CC(=NO)C1=CCC2C3CCC4CC=CCC4(C)C3C(=O)CC12C (stereo not given)
4. OC(CNc1ccnc2ccccc12)c1ccccc1 (stereo not given)
5. O=C(O)c1cn(Cc2cnsn2)c2cc(F)c(F)cc2c1=O

Resp:
1: 102 to 103 °C; 2: 125 to 127 °C; 3: 168 to 182 °C; 4: 289 to 290 °C; 5: 278 to 282 °C
